# TESTED TARGET: Adenosine receptor A2b (Homo sapiens)
# PROTOCOL SUMMARY: Antagonist activity at human adenosine A2B receptor expressed in CHO cells assessed as inhibition of NECA-stimulated cAMP levels at 1 uM
# Assay type: functional, cell-based
PROPERTY NAME: inhibition (%)

Examples from the recorded data:
COc1ccc(NC(=O)c2ccnc(N)n2)cc1    3
COc1ccc(NC(=O)c2cc(=O)[nH]c3ccccc23)cc1    3

P = Cc1ccc(NC(=O)c2nc(N)nc3ccccc23)cc1
Q = Nc1nc(C(=O)NC2CCCCC2)c2ccccc2n1
Ask: Of P and Q , which one carries the higher reported inhibition? Respond with the label that goes with your answer.
Reply: P
(P: 4%, Q: 1%)

P = O=C(Nc1nc(C(=O)Nc2ccccc2)c2ccccc2n1)c1ccccc1
Q = COc1ccc(NC(=O)c2nc(=O)[nH]c3ccccc23)cc1
Ask: Which gives the smaller inhibition number: P or Q ? State your choice using its label.
Reply: P

A = O=C(Nc1ccccc1)c1nc(=O)[nH]c2ccccc12
B = Nc1nc(C(=O)Nc2ccc(Br)cc2)c2ccccc2n1
Ask: In terms of reported inhibition, does A or B have the smaller number? State your choice using its label.
Reply: B
(B: 2%, A: 4%)

a = COc1ccc(NC(=O)c2ccnc(N(C(=O)c3ccccc3)C(=O)c3ccccc3)n2)cc1
b = CC(=O)Nc1nc(C(=O)Nc2ccccc2)c2ccccc2n1
Ask: # return whichever of a and b has the smaller inhibition // output: label of the selected item
Reply: a
(a: 3%, b: 5%)

A = Nc1nc(C(=O)Nc2ccccc2)c2ccccc2n1
B = COc1ccc(NC(=O)c2cc(N)nc3ccccc23)cc1
Ask: Between A and B , which one shows the larger inhibition value? Could you answer with the label of the item you picked?
Reply: A
(A: 5%, B: 3%)

---

# TESTED TARGET: Adenosine receptor A2a (Homo sapiens) (UniProt P29274)
# Sequence (P29274 whole entry): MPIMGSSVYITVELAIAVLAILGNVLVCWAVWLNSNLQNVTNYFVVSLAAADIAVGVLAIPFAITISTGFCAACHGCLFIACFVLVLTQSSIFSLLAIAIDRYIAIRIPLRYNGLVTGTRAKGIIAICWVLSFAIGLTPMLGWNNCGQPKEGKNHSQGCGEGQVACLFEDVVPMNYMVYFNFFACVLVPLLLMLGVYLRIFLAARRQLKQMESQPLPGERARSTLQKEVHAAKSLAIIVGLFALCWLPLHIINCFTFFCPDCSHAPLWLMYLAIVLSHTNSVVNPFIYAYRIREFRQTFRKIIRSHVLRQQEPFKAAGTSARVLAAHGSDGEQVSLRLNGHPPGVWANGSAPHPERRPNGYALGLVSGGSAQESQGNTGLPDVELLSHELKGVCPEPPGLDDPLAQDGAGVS
# PROTOCOL SUMMARY: Displacement of [3H]ZM-241385 from human adenosine A2A receptor expressed in CHO cell membranes at 1 uM
PROPERTY NAME: Activity (%)

Answered examples (3):
COc1ccc(NC(=O)c2ccnc(N)n2)cc1    6
COc1ccc(NC(=O)c2nc(N)nc3ccccc23)cc1    6
CC(=O)Nc1nc(C(=O)Nc2ccccc2)c2ccccc2n1    7

A = O=C(Nc1nc(C(=O)Nc2ccccc2)c2ccccc2n1)c1ccccc1
B = Nc1cc(C(=O)Nc2ccccc2)c2ccccc2n1
C = Nc1nc(C(=O)Nc2ccccc2)c2ccccc2n1
Ask: Sort these compounds on Activity so the largest reading comes first. Reply: labels, ordered per the request.
Reply: C, A, B

---

# TESTED TARGET: Adenosine receptor A1 (Homo sapiens) (UniProt P30542)
# Sequence (whole entry): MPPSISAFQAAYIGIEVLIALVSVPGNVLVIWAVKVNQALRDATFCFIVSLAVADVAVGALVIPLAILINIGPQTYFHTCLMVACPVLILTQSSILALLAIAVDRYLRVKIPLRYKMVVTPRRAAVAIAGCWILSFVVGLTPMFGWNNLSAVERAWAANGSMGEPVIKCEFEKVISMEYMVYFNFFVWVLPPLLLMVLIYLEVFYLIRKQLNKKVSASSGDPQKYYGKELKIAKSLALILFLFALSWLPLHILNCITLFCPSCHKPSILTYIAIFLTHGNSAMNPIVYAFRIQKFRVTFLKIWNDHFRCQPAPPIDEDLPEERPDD
# PROTOCOL SUMMARY: Displacement of [3H]DPCPX from human adenosine A1 receptor expressed in CHO cell membranes at 1 uM
PROPERTY NAME: Activity (%)

See these solved cases before continuing.
O=C(Nc1ccc(Br)cc1)c1nc(=O)[nH]c2ccccc12    3
COc1ccc(NC(=O)c2cc(=O)[nH]c3ccccc23)cc1    4

P = Nc1nc(C(=O)NC2CCCCC2)c2ccccc2n1
Q = COc1ccc(NC(=O)c2ccnc(N)n2)cc1
Ask: Given P and given Q , which shows the smaller recorded Activity? Pick one and reply with its label.
Reply: P
